Numbers sourced from patent US10253007B2.

We begin with a simple list: items and their reported IC50.
# Test system: breast cancer cell line MCF-7
# protocol.details: IC50 values on breast cancer cell line MCF-7
# Assay type: cell-based
# protocol.conditions: Homo sapiens, MCF7, 72 h, read-out: MCF-7(IC50, nM)
quantity.kind: IC50 (nM)

| compound | unit.of.measurement | endpoint.result |
| --- | --- | --- |
| CO[C@H]1C[C@H]2OC[C@@]2(OC(C)=O)[C@H]2[C@H](OC(=O)c3ccccc3)[C@]3(O)C[C@H](OC(=O)[C@H](O)[C@H](CC(C)C)NC(=O)OC(C)(C)C)C(C)=C([C@@H](OC(=O)N(C)C)C(=O)[C@]12C)C3(C)C [PCMI-25] | nM | 1.7 |
| COC(=O)O[C@H]1C[C@H]2OC[C@@]2(OC(C)=O)[C@H]2[C@H](OC(=O)c3ccccc3)[C@]3(O)C[C@H](OC(=O)[C@H](O)[C@H](CC(C)C)NC(=O)OC(C)(C)C)C(C)=C([C@@H](OC)C(=O)[C@]12C)C3(C)C [PCMI-39] | nM | 2.81 |
| CO[C@H]1C(=O)[C@]2(C)CC[C@H]3OC[C@@]3(OC(C)=O)[C@H]2[C@H](OC(=O)c2ccccc2)[C@]2(O)C[C@H](OC(=O)[C@H](O)[C@H](CC(C)C)NC(=O)OC(C)(C)C)C(C)=C1C2(C)C [PCMI-42] | nM | 3.06 |
| CO[C@H]1C[C@H]2OC[C@@]2(OC(C)=O)[C@H]2[C@H](OC(=O)c3ccccc3)[C@]3(O)C[C@H](OC(=O)[C@H](O)[C@@H](NC(=O)OC(C)(C)C)c4ccccc4)C(C)=C([C@@H](OC(=O)N(C)C)C(=O)[C@]12C)C3(C)C [PCMI-22] | nM | 1.58 |
